These data points were gathered from PubChem BioAssay (NCI).

measurement protocol: NCI Yeast Anticancer Drug Screen. Data for the rad50 strain (AID 155);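 note: 0% = growth of vehicle-only cultures of the same strain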
measurement parameters: S. cerevisiae rad50 strain growth inhibition; at 11.0 µM; stronger effect = higher value
Compounds without any hit were thinned out: in the full panel of roughly 79,000, 15% have a hit.
observable: growth inhibition (%)
Just the number please, in %, no unit attached.

# get_value(readout='growth inhibition', item= CCOc1ccccc1N1C(=O)CC(Sc2ccccc2N)C1=O (configuration not stated) )
17

###

Reported growth inhibition values for a set of compounds
measurement protocol: NCI Yeast Anticancer Drug Screen. Data for the sgs1 strain (AID 173);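 note: 0% = growth of vehicle-only control cultures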
measurement parameters: S. cerevisiae sgs1 mutant, at 1.2 µM, stronger effect = higher value
The panel holds about 79,000 compounds, 15% with a hit somewhere; the sample as a whole holds those more often.
Just the number please, in %, no unit attached.

compound: O=S(=O)(O)c1ccc2c(N=Nc3c(O)ccc4ccccc34)cccc2c1
growth inhibition / %: 2

compound: O=C(Nn1c(-c2ccccc2)nc2ccccc2c1=O)c1ccc(Cl)cc1
growth inhibition / %: 23

compound: Cc1ccc(S(=O)(=O)N/N=C/c2c(O)ccc3ccccc23)cc1
growth inhibition / %: 26

# get_value(readout='growth inhibition', item= `CCCCOc1ccc(Nc2c3ccccc3nc3ccccc23)cc1` )
-3

Would you mind doing COC(=O)C1(N2CCOCC2)CCC([C@@H](c2ccccc2)C(C)[N+](=O)[O-])C1 (stereo partly drawn) as well?
-1

Would you mind doing `CCN(CC)CCSc1c2ccccc2nc2cc(NCC(=O)Nc3ccccc3-c3ccccc3NC(=O)CNc3ccc4c(SCCN(CC)CC)c5ccccc5nc4c3)ccc12` as well?
-14

Would you mind doing `CCCCCC(=O)C(C)(c1nc2n(c1O)/C(=N/C(=O)Nc1ccc(Cl)cc1)N=N2)c1nc2n(c1O)/C(=N/C(=O)Nc1ccc(Cl)cc1)N=N2` as well?
2

Would you mind doing `O=C1C(Br)=CC(Br)(Br)C=C1Br` as well?
2
